A collection of compounds and their measured pEC50
measurement_target: human F508del-CFTR (Homo sapiens, UniProt P13569, DEL508-508)
Sequence (P13569 with tags, fused parts or gaps DEL508-508): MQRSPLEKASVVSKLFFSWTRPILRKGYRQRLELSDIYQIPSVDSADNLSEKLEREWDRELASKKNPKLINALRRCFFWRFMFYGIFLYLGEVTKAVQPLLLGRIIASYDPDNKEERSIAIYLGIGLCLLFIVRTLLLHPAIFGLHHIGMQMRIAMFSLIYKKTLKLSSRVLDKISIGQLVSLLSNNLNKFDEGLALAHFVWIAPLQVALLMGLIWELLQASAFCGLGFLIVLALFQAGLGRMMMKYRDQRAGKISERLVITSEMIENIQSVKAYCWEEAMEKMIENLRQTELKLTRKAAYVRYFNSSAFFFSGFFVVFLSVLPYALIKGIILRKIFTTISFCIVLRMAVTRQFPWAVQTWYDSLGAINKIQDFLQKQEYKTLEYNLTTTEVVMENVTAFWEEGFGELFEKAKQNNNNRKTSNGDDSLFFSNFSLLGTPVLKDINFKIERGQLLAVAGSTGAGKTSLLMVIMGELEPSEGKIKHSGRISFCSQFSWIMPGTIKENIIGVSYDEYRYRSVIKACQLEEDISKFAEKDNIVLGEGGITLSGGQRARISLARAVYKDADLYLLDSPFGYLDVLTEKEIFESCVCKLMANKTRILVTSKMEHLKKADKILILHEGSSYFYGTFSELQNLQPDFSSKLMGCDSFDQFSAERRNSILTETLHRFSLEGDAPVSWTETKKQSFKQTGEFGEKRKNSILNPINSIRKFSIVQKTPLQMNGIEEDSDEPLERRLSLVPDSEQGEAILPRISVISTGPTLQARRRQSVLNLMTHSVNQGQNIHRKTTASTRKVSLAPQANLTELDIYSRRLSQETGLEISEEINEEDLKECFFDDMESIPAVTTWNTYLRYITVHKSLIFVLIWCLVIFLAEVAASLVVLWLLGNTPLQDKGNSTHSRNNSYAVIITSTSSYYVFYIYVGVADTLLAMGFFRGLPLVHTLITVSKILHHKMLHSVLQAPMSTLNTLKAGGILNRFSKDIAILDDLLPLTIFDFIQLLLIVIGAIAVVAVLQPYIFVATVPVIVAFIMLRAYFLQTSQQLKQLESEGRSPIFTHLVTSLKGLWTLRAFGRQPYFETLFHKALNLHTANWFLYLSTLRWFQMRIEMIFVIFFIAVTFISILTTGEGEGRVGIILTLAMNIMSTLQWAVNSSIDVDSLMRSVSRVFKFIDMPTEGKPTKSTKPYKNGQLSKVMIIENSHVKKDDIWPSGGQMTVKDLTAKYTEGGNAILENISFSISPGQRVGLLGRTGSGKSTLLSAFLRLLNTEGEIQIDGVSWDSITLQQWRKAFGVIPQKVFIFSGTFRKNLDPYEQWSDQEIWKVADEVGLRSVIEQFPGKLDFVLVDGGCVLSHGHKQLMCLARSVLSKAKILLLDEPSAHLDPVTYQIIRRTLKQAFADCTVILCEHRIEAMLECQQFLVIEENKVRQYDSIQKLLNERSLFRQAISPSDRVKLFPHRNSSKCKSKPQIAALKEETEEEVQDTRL
assay_info: F508del-CFTR cell surface expression (corrector activity), DiscoveRx ß-galactosidase complementation chemiluminescence assay in recombinant U2OS cell line;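 also: U2OS cells co-expressing ProLink-tagged F508del-CFTR and a membrane-anchored enzyme acceptor, where more surface CFTR restores β-galactosidase activity measured by chemiluminescence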
applied_conditions: EC50, F508del-CFTR cell surface expression, U2OS cells, 16h compound incubation; geomean of several measurements
Units for pEC50: none; it is -log10 of a concentration expressed in mol/L.

See these solved cases before continuing.
{"compound": "Cc1cc2c3c(ccc2cn1)OC[C@@H](Cc1ccccc1)NC(=O)[C@@H](Cc1nc(C(F)(F)F)no1)N(C)C(=O)[C@H](CC(C)C)N(C)C(=O)C[C@@H](C(=O)NCCc1noc(C2CC2)n1)NC3=O [Example 889]", "pEC50": 7.47}
{"compound": "COc1cccc(CCNC(=O)[C@@H]2CC(=O)N(C)[C@@H](CC(C)C)C(=O)N(C)[C@H](CCc3ccccc3)C(=O)N[C@H](Cc3ccccc3)COc3cc(C)nc(OC)c3C(=O)N2)c1 [Example 875]", "pEC50": 7.68}
{"compound": "COc1noc(CCNC(=O)[C@@H]2CC(=O)N(C)[C@@H](CC(C)C)C(=O)N(C)C3(CC3)C(=O)N[C@H](Cc3ccccc3)COc3cnc4ccccc4c3C(=O)N2)n1 [Example 872]", "pEC50": 6.27}

Proceed to the following item.
Quick one: pEC50 of Cc1cc2c3c(ccc2cn1)OC[C@@H](Cc1ccccc1)NC(=O)[C@@H](CC(F)(F)F)N(C)C(=O)[C@H](CC(C)C)N(C)C(=O)C[C@@H](C(=O)NCCc1noc(C2CC2)n1)NC3=O [Example 950] ? 6.70
